System: Pseudomonas maltophilia 28978 ATCC 17445
Test: In vitro MIC, Agar Well Diffusion Method
Assay type: cell-based
Condition description: Stenotrophomonas maltophilia, ATCC17445, Culture Pseudomonas maltophilia 28978 ATCC 17445
Where a name gives a salt, the structure may show the parent alone.
Listed below: MIC values for each entry.

[in] Any idea what its MIC is? The compound is CON=C(C(=O)NC1C(=O)N2C1SC(C)(CSc1nnnn1C)C2C(=O)O)c1csc(N)n1 (stereo not drawn) [Compound C, monosodium salt]
[out] > 500 µg/mL

[in] Any idea what its MIC is? The compound is CCN1CCN(C(=O)NC(C(=O)NC2C(=O)N3C2SC(C)(CSc2nnnn2C)C3C(=O)O)c2ccccc2)C(=O)C1=O (stereo not drawn) [Compound A, monosodium salt sesquihydrate]
[out] 250 µg/mL

[in] Any idea what its MIC is? The compound is Cn1nnnc1SCC1(C)SC2C(NC(=O)Cc3ccccc3)C(=O)N2C1C(=O)O (stereo not drawn) [Compound B, monosodium salt]
[out] > 125 µg/mL

[in] Any idea what its MIC is? The compound is CC(=O)Oc1ccc(C(=O)OCC2(C)SC3C(NC(=O)Cc4ccccc4)C(=O)N3C2C(=O)O)cc1OC(C)=O (stereo not drawn) [Compound H, monosodium salt]
[out] 31.5 µg/mL

[in] Any idea what its MIC is? The compound is CC(=O)SCC1(C)SC2C(NC(=O)Cc3ccccc3)C(=O)N2C1C(=O)O (stereo not drawn) [Compound G, monosodium salt]
[out] > 500 µg/mL

[in] Any idea what its MIC is? The compound is CC1(CN=[N+]=[N-])SC2C(NC(=O)Cc3ccccc3)C(=O)N2C1C(=O)O (stereo not drawn) [Compound D, monosodium salt]
[out] > 125 µg/mL
